biological target: Nur77 (Homo sapiens, UniProt P22736); construct: Nur77 (uniprot entry: hNUR77–P22736, residues 358–598); expressed in transfected cells; host or cells: HEK293T; test: Gal4-Nur77 hybrid reporter gene assay in HEK293T cells; format: cell-based; settings: 30 µM; primary screen; n ≥ 2; ^# not significant vs VP16 control
Sequence (P22736 358-598): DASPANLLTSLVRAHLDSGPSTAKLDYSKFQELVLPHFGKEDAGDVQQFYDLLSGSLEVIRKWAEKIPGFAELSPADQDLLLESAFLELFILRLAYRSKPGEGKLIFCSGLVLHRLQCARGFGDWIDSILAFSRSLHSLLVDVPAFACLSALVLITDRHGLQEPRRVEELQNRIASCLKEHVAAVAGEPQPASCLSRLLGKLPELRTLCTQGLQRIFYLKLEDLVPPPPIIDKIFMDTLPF
For each entry below, report its Nur77 activity 30μM (mean fold activation) value.
Only the number, expressed in fold, is required.

For reference, reported Nur77 activity 30μM (mean fold activation) for CC(C)Cc1ccc(C(C)C(=O)O)cc1 (stereo not shown) stands at 0.89

For reference, reported Nur77 activity 30μM (mean fold activation) for COc1ccc2cc([C@H](C)C(=O)O)ccc2c1 stands at 1.07

For reference, reported Nur77 activity 30μM (mean fold activation) for O=C(O)c1ccccc1O stands at 1.02

For reference, reported Nur77 activity 30μM (mean fold activation) for Cc1ccc(Nc2c(F)cccc2Cl)c(CC(=O)O)c1 stands at 0.66

For reference, reported Nur77 activity 30μM (mean fold activation) for CC(C(=O)O)c1cccc(Oc2ccccc2)c1 (stereo not shown) stands at 0.86

For reference, reported Nur77 activity 30μM (mean fold activation) for O=C(O)COC(=O)Cc1ccccc1Nc1c(Cl)cccc1Cl stands at 0.60

For reference, reported Nur77 activity 30μM (mean fold activation) for CCc1cccc2c3c([nH]c12)C(CC)(CC(=O)O)OCC3 (stereo not shown) stands at 0.90

For reference, reported Nur77 activity 30μM (mean fold activation) for Nc1c(CC(=O)O)cccc1C(=O)c1ccc(Br)cc1 stands at 1.03

For reference, reported Nur77 activity 30μM (mean fold activation) for CS(=O)(=O)c1ccc(C2=C(c3ccccc3)C(=O)OC2)cc1 stands at 0.91

For reference, reported Nur77 activity 30μM (mean fold activation) for CC(C(=O)O)c1cccc(C(=O)c2ccccc2)c1 (stereo not shown) stands at 0.88

For reference, reported Nur77 activity 30μM (mean fold activation) for CC(=O)Oc1ccccc1C(=O)O stands at 0.97

For reference, reported Nur77 activity 30μM (mean fold activation) for CN1C(C(=O)Nc2ccccn2)=C(O)c2ccccc2S1(=O)=O stands at 0.92

The reported numbers originate from paper PMC9814838.
